Assign pIC50 to each entry below.
target: human FLT3-ITD (Homo sapiens); assay: Enzymatic kinase assay FLT3 (ITD), 10-dose IC50 mode (Reaction Biology); format: biochemical; conditions: 10 μM ATP; read-out: IC50 FLT3 (ITD)
Where a name gives a salt, the structure may show the parent alone.
The meaning of pIC50 here: minus log10 of the concentration in molar units.

Form: compound = C=CC(=O)N1CCN(Cc2c(O)ccc3[nH]c(C(=O)c4cc5cc(NC(=O)Nc6cc(C(C)(C)C)on6)ccc5o4)cc23)CC1 [Compound 56b, 2,2,2-trifluoroacetate] ; pIC50 = 8.83

Form: compound = CC(C)N1CCN(Cc2c(O)ccc3[nH]c(C(=O)c4cc5cc(NC(=O)Nc6cc(C(C)(C)C)on6)ccc5o4)cc23)CC1 [Compound 70a] ; pIC50 = 8.70

Form: compound = CC(C)(C)c1cc(NC(=O)Nc2ccc3oc(C(=O)c4cc5c(CN6CCNCC6)c(O)ccc5[nH]4)cc3c2)no1 [Compound 55b, bis(2,2,2-trifluoroacetate)] ; pIC50 = 8.47

Form: compound = CCN1CCN(Cc2c(O)ccc3[nH]c(C(=O)c4cc5cc(NC(=O)Nc6cc(C(C)(C)C)on6)ccc5o4)cc23)CC1 [Compound 69a] ; pIC50 = 8.89

Form: compound = CN1CCN(Cc2c(O)ccc3[nH]c(C(=O)c4cc5cc(NC(=O)Nc6cc(C(C)(C)C)on6)ccc5o4)cc23)CC1 [Compound 33a] ; pIC50 = 9.09

Form: compound = C/C=C/C(=O)N1CCN(Cc2c(O)ccc3[nH]c(C(=O)c4cc5cc(NC(=O)Nc6cc(C(C)(C)C)on6)ccc5o4)cc23)CC1 [Compound 57a] ; pIC50 = 8.36

Form: compound = CN(C)Cc1c(O)ccc2[nH]c(C(=O)c3cc4cc(NC(=O)Nc5cc(C(C)(C)C)on5)ccc4o3)cc12 [Compound 34a] ; pIC50 = 8.82

Form: compound = CC(C)(C)c1cc(NC(=O)Nc2ccc3oc(C(=O)c4cc5c(CN6CCOCC6)c(O)ccc5[nH]4)cc3c2)no1 [Compound 30c, hydrochloride] ; pIC50 = 8.70

====

Assign IC50 to each entry below.
molecular target: c-KIT (Homo sapiens); construct: expresses endogenously a high level of wild-type c-KIT; endogenous in cells; host or cells: Mo7e (human acute megakaryoblastic leukemia); test: Cellular c-KIT phosphorylation assay in Mo7e cells (sandwich-ELISA); type: cell-based
Sequence (P10721 26-976): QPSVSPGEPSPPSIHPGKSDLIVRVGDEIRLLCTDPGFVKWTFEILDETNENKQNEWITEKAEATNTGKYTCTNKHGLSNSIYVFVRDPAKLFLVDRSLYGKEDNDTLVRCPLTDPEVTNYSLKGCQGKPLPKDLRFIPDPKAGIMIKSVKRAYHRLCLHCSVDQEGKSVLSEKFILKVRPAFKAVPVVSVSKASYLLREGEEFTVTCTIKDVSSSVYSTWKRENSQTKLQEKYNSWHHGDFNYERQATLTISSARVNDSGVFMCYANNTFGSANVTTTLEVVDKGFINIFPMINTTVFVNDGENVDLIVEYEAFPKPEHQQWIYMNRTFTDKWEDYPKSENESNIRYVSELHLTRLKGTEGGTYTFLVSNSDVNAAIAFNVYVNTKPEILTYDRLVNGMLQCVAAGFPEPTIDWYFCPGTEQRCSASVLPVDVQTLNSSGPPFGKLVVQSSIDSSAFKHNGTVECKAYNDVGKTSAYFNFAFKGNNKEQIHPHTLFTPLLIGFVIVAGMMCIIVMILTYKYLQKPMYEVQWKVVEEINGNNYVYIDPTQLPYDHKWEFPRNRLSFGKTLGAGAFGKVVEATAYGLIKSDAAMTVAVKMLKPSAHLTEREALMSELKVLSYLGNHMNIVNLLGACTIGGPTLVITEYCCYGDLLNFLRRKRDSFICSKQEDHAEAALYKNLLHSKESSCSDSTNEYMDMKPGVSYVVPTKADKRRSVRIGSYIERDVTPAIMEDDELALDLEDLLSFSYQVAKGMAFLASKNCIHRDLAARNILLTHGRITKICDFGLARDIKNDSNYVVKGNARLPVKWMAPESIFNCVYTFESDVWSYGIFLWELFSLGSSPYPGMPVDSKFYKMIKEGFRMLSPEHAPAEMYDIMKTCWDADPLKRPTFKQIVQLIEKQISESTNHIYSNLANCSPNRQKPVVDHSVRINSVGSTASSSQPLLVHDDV
Give the value, in units of nM, as a plain number.

Form: compound = CN(C)Cc1c(OC(=O)N2CCC(N3CCCCC3)CC2)ccc2[nH]c(C(=O)c3cc4cc(NC(=O)Nc5cc(C(C)(C)C)on5)ccc4o3)cc12 [Compound 42b, bis(2,2,2-trifluoroacetate)] ; IC50 = 3.2

Form: compound = CN1CCN(Cc2c(OC(=O)N3CCC(N4CCCCC4)CC3)ccc3[nH]c(C(=O)c4cc5cc(NC(=O)Nc6cc(C(C)(C)C)on6)ccc5o4)cc23)CC1 [Compound 41b, tris(2,2,2-trifluoroacetate)] ; IC50 = 6.4

====

experiment: Solubility test by UV-Vis spectroscopy of saturated solutions; assay type: physicochemical; settings: solvent DMSO
Experimental readout: Solubility DMSO

Example compounds with recorded Solubility DMSO:
| Compound | Solubility DMSO |
| --- | --- |
| CC(C)N1CCN(Cc2c(O)ccc3[nH]c(C(=O)c4cc5cc(NC(=O)Nc6cc(C(C)(C)C)on6)ccc5o4)cc23)CC1 [Compound 70a] | Soluble |
| CN(C)Cc1c(O)ccc2[nH]c(C(=O)c3cc4cc(NC(=O)Nc5cc(C(C)(C)C)on5)ccc4o3)cc12 [Compound 34b, 2,2,2-trifluoroacetate] | Soluble |
| C=CC(=O)N1CCN(Cc2c(O)ccc3[nH]c(C(=O)c4cc5cc(NC(=O)Nc6cc(C(C)(C)C)on6)ccc5o4)cc23)CC1 [Compound 56b, 2,2,2-trifluoroacetate] | Soluble |
| CCN1CCN(Cc2c(O)ccc3[nH]c(C(=O)c4cc5cc(NC(=O)Nc6cc(C(C)(C)C)on6)ccc5o4)cc23)CC1 [Compound 69a] | Soluble |

Form: compound = CC(C)(C)c1cc(NC(=O)Nc2ccc3oc(C(=O)c4cc5cc(O)ccc5[nH]4)cc3c2)no1 [Marbotinib] ; Solubility DMSO = Soluble

Form: compound = CC(C)(C)c1cc(NC(=O)Nc2ccc3oc(C(=O)c4cc5c(CN6CCCC6)c(O)ccc5[nH]4)cc3c2)no1 [Compound 32a] ; Solubility DMSO = Soluble

Form: compound = CC(C)(C)c1cc(NC(=O)Nc2ccc3oc(C(=O)c4cc5c(CN6CCCCC6)c(O)ccc5[nH]4)cc3c2)no1 [Compound 31a] ; Solubility DMSO = Soluble

Form: compound = CC(C)(C)OC(=O)N1CCN(Cc2c(O)ccc3[nH]c(C(=O)c4cc5cc(NC(=O)Nc6cc(C(C)(C)C)on6)ccc5o4)cc23)CC1 [Compound 54a] ; Solubility DMSO = Soluble

Form: compound = CCN1CCN(Cc2c(O)ccc3[nH]c(C(=O)c4cc5cc(NC(=O)Nc6cc(C(C)(C)C)on6)ccc5o4)cc23)CC1 [Compound 69b] ; Solubility DMSO = Soluble
